Just for reference, patent US9951058B2 is where these values come from.

assay-protocol: in vitro
test-conditions: human

| compound | CC50 |
| --- | --- |
| Cc1cc(C)c(C(=O)C(=O)NC23C(=O)c4c(N)cccc4C2(O)Oc2cc(C(C)C)ccc23)c(C)c1 (stereo not shown) | 8.6 µg/mL |
| CCC(C)C(=O)C(=O)NC12C(=O)c3c(N)cccc3C1(O)Oc1cc(C(C)C)ccc12 (stereo not shown) | > 10 µg/mL |
| Cc1cccc(C)c1NC(=O)C(=O)NC12C(=O)c3ccccc3C1(O)Oc1cc(C(C)C)ccc12 (stereo not shown) | > 10 µg/mL |
| CC(C)c1ccc2c(c1)OC1(O)c3ccccc3C(=O)C21NC(=O)C(=O)CC(=O)c1ccncc1 (stereo not shown) | > 10 µg/mL |
| CC(C)CC(=O)C(=O)NC12C(=O)c3cccc([N+](=O)[O-])c3C1(O)Oc1cc(C(C)C)ccc12 (stereo not shown) | > 10 µg/mL |
| CC(C)c1ccc2c(c1)OC1(O)c3ccccc3C(=O)C21NC(=O)CNC(=O)OC(C)(C)C (stereo not shown) | > 10 µg/mL |
| CCC(C)C(=O)C(=O)NC12C(=O)c3ccccc3C1(O)Oc1cc(C(C)C)ccc12 (stereo not shown) | > 10 µg/mL |
| CC(=O)C(=O)NC12C(=O)c3cccc([N+](=O)[O-])c3C1(O)Oc1cc(C(C)C)ccc12 (stereo not shown) | > 10 µg/mL |
| CC(C)c1ccc2c(c1)OC1(O)c3ccccc3C(=O)C21NC(=O)CCC(=O)O (stereo not shown) | > 10 µg/mL |
| CC(C)NC(=O)CCC(=O)NC12C(=O)c3ccccc3C1(O)Oc1cc(C(C)C)ccc12 (stereo not shown) | > 10 µg/mL |
| CC(C)c1ccc2c(c1)OC1(O)c3ccccc3C(=O)C21NC(=O)C(=O)C(C)(C)C (stereo not shown) | > 10 µg/mL |
| CC(=O)C(=O)NC12C(=O)c3ccccc3C1(O)Oc1cc(C(C)C)ccc12 (stereo not shown) | 9.02 µg/mL |
| CC(C)c1ccc2c(c1)OC1(O)c3cccc(N)c3C(=O)C21NC(=O)C(=O)c1c[nH]c2ccccc12 (stereo not shown) | 4.89 µg/mL |
| CC(C)c1ccc2c(c1)OC1(O)c3cccc(N)c3C(=O)C21NC(=O)C(=O)c1ccccc1 (stereo not shown) | 7.82 µg/mL |
| CC(C)c1ccc2c(c1)OC1(O)c3ccccc3C(=O)C21N/C(=N\C(=O)OC(C)(C)C)NC(=O)OC(C)(C)C (stereo not shown) | > 10 µg/mL |
| CCCC(=O)C(=O)NC12C(=O)c3cccc([N+](=O)[O-])c3C1(O)Oc1cc(C(C)C)ccc12 (stereo not shown) | > 10 µg/mL |
